Measured values drawn from patent US20240246981A1 for this set.

Here, each record is paired with measured Papp A→B data.
Assay: Assay C: permeability in CACO-2 cells
Format: in vitro ADME
Settings: human, pH 7.2; Caco-2, apical to basolateral; compounds of the invention, Table 7
Your answer is read as ×10⁻⁶ cm/s, so omit the unit and give the number.

Record summary for Cc1cc(F)ncc1-c1cccc(C#N)c1N1CCC(c2nncn2C)CC1 [compound 4] : reported Papp A→B = 16

Reported Papp A→B of COc1cc(-c2cccc(C#N)c2N2CCC(c3nncn3C)CC2)cnc1F [compound 49] : 18

So for Cn1cnnc1C1(F)CCN(c2c(C#N)cccc2-c2ccnnc2)CC1 [compound 52] , the logged Papp A→B turned out to be 15

Papp A→B recorded for this molecule, Cc1cc(-c2cccc(C#N)c2N2CCC(c3nncn3C)CC2)cnc1F [compound 5] , is 23

Papp A→B in this record for Cn1nc2cc(-c3cccc(C#N)c3N3CCC(c4nncn4C)CC3)cnc2n1 [compound 45] : 0.8

For reference, reported Papp A→B for Cn1cnnc1C1CCN(c2c(C#N)cccc2-c2cccnc2)CC1 [compound 67] stands at 5.3

Sample Cn1cnnc1C1CCN(c2c(C#N)cccc2-c2cnc3nn(C(C)(C)C)cc3c2)CC1 [compound 50] ; Papp A→B observed: 0.5

Papp A→B reported for this molecule Cn1cnnc1C1CCN(c2c(C#N)cccc2-c2cnc(F)c(OC3CC3)c2)CC1 [compound 47] : 13

###

Target: QPCT (Homo sapiens (Human), UniProt Q16769)
Sequence (Q16769 29-361): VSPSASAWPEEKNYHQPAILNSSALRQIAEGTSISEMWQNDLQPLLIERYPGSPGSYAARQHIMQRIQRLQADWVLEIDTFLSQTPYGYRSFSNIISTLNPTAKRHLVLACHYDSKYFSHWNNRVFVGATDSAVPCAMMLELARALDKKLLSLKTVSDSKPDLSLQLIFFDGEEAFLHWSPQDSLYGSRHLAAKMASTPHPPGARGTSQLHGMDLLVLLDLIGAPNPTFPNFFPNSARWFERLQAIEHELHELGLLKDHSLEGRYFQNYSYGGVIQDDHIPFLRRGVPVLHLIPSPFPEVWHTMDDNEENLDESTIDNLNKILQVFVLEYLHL
Assay: Assay A: biochemical QPCT activity assay (MALDI-TOF MS)
Details: compounds of the invention, Table 2; read-out: Inhibition of QPCT: IC50
Measure Name: IC50 (µM)
Quick reminder: number only, in µM, skip the unit.

| Molecule Smiles | Value Units | IC50 |
| --- | --- | --- |
| Cn1cnnc1C1(F)CCN(c2c(C#N)cccc2-c2cnc(=O)n(Cc3ccccc3)c2)CC1 | µM | 0.008 |
| Cn1cnnc1C1CCN(c2c(C#N)cccc2-c2cnc(F)c(F)c2)CC1 | µM | 0.028 |

Reported IC50 of Cn1cnnc1C1CCN(c2c(C#N)cccc2-c2cncc(-c3ncco3)c2)CC1 : 0.025

For Cc1cc(C)n(-c2cncc(-c3cccc(C#N)c3N3CCC(c4nncn4C)CC3)c2)n1 the compound record lists IC50 as 0.008

###

Biological target: QPCTL (Homo sapiens (Human), UniProt Q9NXS2)
Sequence (Q9NXS2 whole entry): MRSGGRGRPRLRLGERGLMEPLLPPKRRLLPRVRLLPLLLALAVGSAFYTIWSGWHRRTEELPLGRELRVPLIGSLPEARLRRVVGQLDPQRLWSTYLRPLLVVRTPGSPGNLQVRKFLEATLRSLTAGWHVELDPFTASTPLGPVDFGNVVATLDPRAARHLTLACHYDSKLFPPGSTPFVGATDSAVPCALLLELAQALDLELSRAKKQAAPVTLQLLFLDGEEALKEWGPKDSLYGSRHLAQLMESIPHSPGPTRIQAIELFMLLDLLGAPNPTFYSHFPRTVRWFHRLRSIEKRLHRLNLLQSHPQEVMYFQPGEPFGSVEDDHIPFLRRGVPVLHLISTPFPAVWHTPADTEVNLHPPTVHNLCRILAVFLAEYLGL
Assay: Assay A: biochemical QPCTL activity assay (MALDI-TOF MS)
Details: compounds of the invention, Table 2; read-out: Inhibition of QPCTL: IC50
# maps each entry to its pIC50
Please report pIC50 as the negative decimal logarithm of the molar concentration, giving only the number.

Use the examples below as a reference point.
| Compound | pIC50 |
| --- | --- |
| Cn1cnnc1C1CCN(c2c(C#N)cccc2-c2cnc3c(c2)OCO3)CC1 [compound 25] | 7.85 |
| Cn1cnnc1C1(F)CCN(c2c(C#N)cccc2-c2cnc3nc(C(F)(F)F)cn3c2)CC1 [compound 74] | 9.00 |
| Cc1ccncc1-c1cccc(C#N)c1N1CCC(c2nncn2C)CC1 [compound 8] | 8.22 |
| COc1cc(F)ncc1-c1cccc(C#N)c1N1CCC(c2nncn2C)CC1 [compound 44] | 8.40 |
| Cn1cnnc1C1(F)CCN(c2c(C#N)cccc2-c2ccnnc2)CC1 [compound 52] | 8.70 |

Measured pIC50, CC#Cc1cncc(-c2cccc(C#N)c2N2CCC(c3nncn3C)CC2)c1 [compound 10] : 7.74

Cc1cc(C)n(-c2cncc(-c3cccc(C#N)c3N3CCC(c4nncn4C)CC3)c2)n1 [compound 51] yielded pIC50 of 8.70

The recorded pIC50 for Cn1cnnc1C1(F)CCN(c2c(C#N)cccc2-c2cnc3nc(-c4cccc(Cl)c4)ccn23)CC1 [compound 84] is 8.52
